# METHOD SUMMARY: A CellTox Green Cytotoxicity Assay to monitor cytotoxicity in HepG2 cells - 16 hour (AID 1224876); note: nearly all actives have a fitted effect of over 45% in size
# ASSAY CONDITIONS: CellTox Green fluorescence; series mostly up to 76.8 µM
Results filed as inconclusive are left out. The source made the active and inactive calls. Calls come from the whole dose curve; as a rule, active = well fitted activation curve with a large enough effect in the repeat runs; inconclusive = weak or mixed curves; inactive = flat fitted curve, though single readings scatter.
Allowed answers: active, inactive

Some entries whose results are on file:
>>> class_assignment("CN(C)CCOc1ccc(/C(=C(/CCCl)c2ccccc2)c2ccccc2)cc1")
"active"
>>> class_assignment("NCc1ccco1")
"inactive"
>>> class_assignment("C/C=C/C(=O)OCC(C)C")
"inactive"
>>> class_assignment("CC(C)C(=O)C(C)C")
"inactive"
>>> class_assignment("O=C1CCC(=O)N1")
"inactive"

Field: outcome | Entry: CC1(C)[C@H]2CC[C@]1(C)C(=O)C2
inactive

Test call for this compound, please: CCOC=C(C(=O)OCC)C(=O)OCC
inactive

What outcome does the record of this test show for c1ccc(-c2nc3ccccc3[nH]2)cc1 ?
inactive
